experiment: Oral bioavailability in Sprague-Dawley rat at 5 mg/kg administered as single dose by LC-MS/MS analysis; format: ADME, organism-based; details: in vivo
Metric: bioavailability (%)

# Molecule, Result number
data = [
    ("CCOC(=O)C1=C(CN2CCO[C@H](C)[C@H]2C(=O)O)NC(c2nccs2)=N[C@H]1c1ccc(F)cc1Br", 44.5),
    ("CCOC(=O)C1=C(CN2CCOC[C@@H]2CCC(=O)O)NC(c2nccs2)=N[C@H]1c1ccc(F)cc1Br", 54),
    ("CCOC(=O)C1=C(CN2CCO[C@@H](CCC(=O)O)C2)NC(c2nccs2)=N[C@H]1c1ccc(F)cc1Br", 41),
    ("CCOC(=O)C1=C(CN2CCO[C@H](CCC(=O)O)C2)NC(c2nccs2)=N[C@H]1c1ccc(F)cc1Br", 47.7),
]

[A] CCOC(=O)C1=C(CN2CCOC[C@H]2C(=O)O)NC(c2nccs2)=N[C@H]1c1ccc(F)cc1Br
[B] CCOC(=O)C1=C(CN2CCOCC2)NC(c2nccs2)=NC1c1ccc(F)cc1Br (configuration not stated)
[C] CCOC(=O)C1=C(CN2CC(F)(F)C[C@@H]2CCC(=O)O)NC(c2nccs2)=N[C@H]1c1ccc(F)cc1Br
Exam item: Rank items: key bioavailability, increasing. # output: labels, in the requested order
Marked response: B, A, C
(B: 8.9%, A: 23.1%, C: 41.3%)

---

test: Plasma concentration in Balb/c mouse at 12.5 mg/kg, po bid after 24 hrs by LC-MS/MS analysis; type: ADME, organism-based
Metric: concentration at 24 h (ng/mL)
A number alone suffices; assume ng/mL.

Exam item: Report concentration at 24 h for "CCOC(=O)C1=C(CN2CCO[C@H](CCC(=O)O)C2)NC(c2nccs2)=N[C@H]1c1ccc(F)cc1Br" please.
Marked response: 849

---

experiment: AUC (0 to 24 hrs) in Sprague-Dawley rat at 5 mg/kg, po administered as single dose by LC-MS/MS analysis; format: ADME, organism-based; design: time < 24 hr, dose 5 mg/kg, route oral; settings: in vivo
Metric: AUC(0-t) at 24 h (ng·h/mL)

# Compound, AUC(0-t) at 24 h, ng·h/mL
records = [
    ("CCOC(=O)C1=C(CN2CCOC[C@@H]2CCC(=O)O)NC(c2nccs2)=N[C@H]1c1ccc(F)cc1Br", 572),
]

[1] CCOC(=O)C1=C(CN2CCOCC2)NC(c2nccs2)=NC1c1ccc(F)cc1Br (stereo not drawn)
[2] CCOC(=O)C1=C(CN2CCO[C@@H](CCC(=O)O)C2)NC(c2nccs2)=N[C@H]1c1ccc(F)cc1Br
Exam item: Which shows the larger AUC(0-t) at 24 h value: 1 or 2 ? Output the label that corresponds to your choice.
Marked response: 2

---

experiment: Cmax in Beagle dog at 2 mg/kg, iv administered as single dose by LC-MS/MS analysis; type: ADME, organism-based, Canis lupus familiaris; parameters: dose 2 mg/kg, route intravenous; conditions: in vivo
Metric: Cmax (ng/mL)

[a] CCOC(=O)C1=C(CN2CCO[C@H](CCC(=O)O)C2)NC(c2nccs2)=N[C@H]1c1ccc(F)cc1Br
[b] CCOC(=O)C1=C(CN2CCOCC2)NC(c2nccs2)=NC1c1ccc(F)cc1Br (configuration not stated)
Exam item: Please indicate which item has the smaller measured Cmax: a versus b Output the label that corresponds to your choice.
Marked response: b

---

test: Intrinsic clearance in human liver microsomes at 1 uM preincubated for 10 mins followed by NADPH addition measured up to 60 mins by LC-MS/MS analysis; format: ADME, microsome; conditions: read-out: CLH
Metric: CLint scaled at 1 µM (mL/min/kg)

# Compound, Metric, Result number
rows = [
    ("CCOC(=O)C1=C(CN2CCO[C@H](CCC(=O)O)C2)NC(c2nccs2)=N[C@H]1c1ccc(F)cc1Br", "CLint scaled at 1 µM", 18),
]

[1] CCOC(=O)C1=C(CN2CCO[C@H](C)[C@H]2C(=O)O)NC(c2nccs2)=N[C@H]1c1ccc(F)cc1Br
[2] CCOC(=O)C1=C(CN2CCOCC2)NC(c2nccs2)=NC1c1ccc(F)cc1Br (configuration not stated)
Exam item: Which shows the larger CLint scaled at 1 µM value: 1 or 2 ? Output the label that corresponds to your choice.
Marked response: 2

---

experiment: Oral bioavailability in Beagle dog at 5 mg/kg administered as single dose by LC-MS/MS analysis; format: ADME, organism-based, Canis lupus familiaris; conditions: in vivo
Metric: bioavailability (%)
A number alone suffices; assume %.

Exam item: Report bioavailability for "CCOC(=O)C1=C(CN2CCO[C@H](CCC(=O)O)C2)NC(c2nccs2)=N[C@H]1c1ccc(F)cc1Br" please.
Marked response: 114

---

assay: AUC (0 to 24 hrs) in Sprague-Dawley rat at 5 mg/kg, po administered as single dose by LC-MS/MS analysis; format: ADME, organism-based; parameters: time < 24 hr, dose 5 mg/kg, route oral; conditions: in vivo
Metric: AUC(0-t) at 24 h (ng·h/mL)

# Smiles code, Units of measure, AUC(0-t) at 24 h
rows = [
    ("CCOC(=O)C1=C(CN2CCO[C@H](CCC(=O)O)C2)NC(c2nccs2)=N[C@H]1c1ccc(F)cc1Br", "ng·h/mL", 4900),
]

[A] CCOC(=O)C1=C(CN2CCOC[C@H]2C(=O)O)NC(c2nccs2)=N[C@H]1c1ccc(F)cc1Br
[B] CCOC(=O)C1=C(CN2CC(F)(F)C[C@@H]2CCC(=O)O)NC(c2nccs2)=N[C@H]1c1ccc(F)cc1Br
Exam item: Please indicate which item has the smaller measured AUC(0-t) at 24 h: A versus B Output the label that corresponds to your choice.
Marked response: A
(A: 548 ng·h/mL, B: 999 ng·h/mL)

---

experiment: AUC (0 to 24 hrs) in Beagle dog at 5 mg/kg, po administered as single dose by LC-MS/MS analysis; type: ADME, organism-based, Canis lupus familiaris; set-up: time < 24 hr, dose 5 mg/kg, route oral; settings: in vivo
Metric: AUC(0-t) at 24 h (ng·h/mL)

[a] CCOC(=O)C1=C(CN2CCOCC2)NC(c2nccs2)=NC1c1ccc(F)cc1Br (configuration not stated)
[b] CCOC(=O)C1=C(CN2CCO[C@H](CCC(=O)O)C2)NC(c2nccs2)=N[C@H]1c1ccc(F)cc1Br
Exam item: Which shows the larger AUC(0-t) at 24 h value: a or b ? Output the label that corresponds to your choice.
Marked response: b

---

experiment: Intrinsic clearance in mouse liver microsomes at 1 uM preincubated for 10 mins followed by NADPH addition measured up to 60 mins by LC-MS/MS analysis; format: ADME, microsome; conditions: read-out: CLH
Metric: CLint scaled at 1 µM (mL/min/kg)

Consider the worked cases shown below.
# Compound, Units of measure, CLint scaled at 1 µM
rows = [
    ("CCOC(=O)C1=C(CN2CCOC[C@H]2C(=O)O)NC(c2nccs2)=N[C@H]1c1ccc(F)cc1Br", "mL/min/kg", 377),
    ("CCOC(=O)C1=C(CN2CCO[C@@H](CCC(=O)O)C2)NC(c2nccs2)=N[C@H]1c1ccc(F)cc1Br", "mL/min/kg", 281),
    ("CCOC(=O)C1=C(CN2CCOCC2)NC(c2nccs2)=NC1c1ccc(F)cc1Br (configuration not stated)", "mL/min/kg", 485),
    ("CCOC(=O)C1=C(CN2CCOC[C@@H]2CCC(=O)O)NC(c2nccs2)=N[C@H]1c1ccc(F)cc1Br", "mL/min/kg", 316),
    ("CCOC(=O)C1=C(CN2CC(F)(F)C[C@@H]2CCC(=O)O)NC(c2nccs2)=N[C@H]1c1ccc(F)cc1Br", "mL/min/kg", 362),
]

[A] CCOC(=O)C1=C(CN2CCO[C@H](CCC(=O)O)C2)NC(c2nccs2)=N[C@H]1c1ccc(F)cc1Br
[B] CCOC(=O)C1=C(CN2CCO[C@H](C)[C@H]2C(=O)O)NC(c2nccs2)=N[C@H]1c1ccc(F)cc1Br
Exam item: Which shows the larger CLint scaled at 1 µM value: A or B ? Output the label that corresponds to your choice.
Marked response: A
(A: 385 mL/min/kg, B: 89 mL/min/kg)

---

assay: Cmax in Beagle dog at 5 mg/kg, po administered as single dose by LC-MS/MS analysis; assay type: ADME, organism-based, Canis lupus familiaris; design: dose 5 mg/kg, route oral; settings: in vivo
Metric: Cmax (ng/mL)
A number alone suffices; assume ng/mL.

Exam item: Report Cmax for CCOC(=O)C1=C(CN2CCOCC2)NC(c2nccs2)=NC1c1ccc(F)cc1Br (stereo unspecified) please.
Marked response: 391

---

assay: Volume of distribution at steady state in Sprague-Dawley rat at 2 mg/kg, iv administered as single dose by LC-MS/MS analysis; assay type: ADME, organism-based; conditions: in vivo, read-out: Vdss
Metric: Vd (L/kg)

Consider the worked cases shown below.
# Compound, Units of measure, Vd
measured = [
    ("CCOC(=O)C1=C(CN2CCO[C@H](CCC(=O)O)C2)NC(c2nccs2)=N[C@H]1c1ccc(F)cc1Br", "L/kg", 0.41),
    ("CCOC(=O)C1=C(CN2CCOC[C@@H]2CCC(=O)O)NC(c2nccs2)=N[C@H]1c1ccc(F)cc1Br", "L/kg", 1.53),
    ("CCOC(=O)C1=C(CN2CCO[C@H](C)[C@H]2C(=O)O)NC(c2nccs2)=N[C@H]1c1ccc(F)cc1Br", "L/kg", 0.37),
]

[a] CCOC(=O)C1=C(CN2CCO[C@@H](CCC(=O)O)C2)NC(c2nccs2)=N[C@H]1c1ccc(F)cc1Br
[b] CCOC(=O)C1=C(CN2CCOCC2)NC(c2nccs2)=NC1c1ccc(F)cc1Br (configuration not stated)
[c] CCOC(=O)C1=C(CN2CCOC[C@H]2C(=O)O)NC(c2nccs2)=N[C@H]1c1ccc(F)cc1Br
[d] CCOC(=O)C1=C(CN2CC(F)(F)C[C@@H]2CCC(=O)O)NC(c2nccs2)=N[C@H]1c1ccc(F)cc1Br
Exam item: Arrange these compounds by their Vd, starting with the largest number. # output: labels, in the requested order
Marked response: b, a, d, c
